# protocol-notes: In situ recirculating intestinal perfusion
# Assay type: in vivo
# conditions: rat, other: in situ recirculating intestinal perfusion, absorption potential (Papp), rat small intestine, different concentrations of HLF
recorded-metric: Papp at 3 h

Study these solved cases before continuing.
compound	Papp at 3 h
O=c1cc(-c2ccc(O)cc2)oc2c([C@@H]3O[C@H](CO)[C@@H](O)[C@H](O)[C@H]3O)c(O)cc(O)c12	0.031 to 0.141 ×10⁻⁶ cm/s
O=c1c(O[C@@H]2O[C@H](CO)[C@H](O)[C@H](O)[C@H]2O)c(-c2ccc(O)c(O)c2)oc2cc(O)cc(O)c12 [HP, hyperoside]	0.255 to 0.427 ×10⁻⁶ cm/s

Now look at this entry.
Check the records and state Papp at 3 h for C[C@@H]1O[C@@H](OC[C@H]2O[C@@H](Oc3c(-c4ccc(O)c(O)c4)oc4cc(O)cc(O)c4c3=O)[C@H](O)[C@@H](O)[C@@H]2O)[C@H](O)[C@H](O)[C@H]1O 0.031 to 0.141 ×10⁻⁶ cm/s
